The entries below come with measured pIC50 values attached.
- Test system: human orexin-2 receptor (Homo sapiens (Human), UniProt O43614)
- Sequence (O43614 whole entry): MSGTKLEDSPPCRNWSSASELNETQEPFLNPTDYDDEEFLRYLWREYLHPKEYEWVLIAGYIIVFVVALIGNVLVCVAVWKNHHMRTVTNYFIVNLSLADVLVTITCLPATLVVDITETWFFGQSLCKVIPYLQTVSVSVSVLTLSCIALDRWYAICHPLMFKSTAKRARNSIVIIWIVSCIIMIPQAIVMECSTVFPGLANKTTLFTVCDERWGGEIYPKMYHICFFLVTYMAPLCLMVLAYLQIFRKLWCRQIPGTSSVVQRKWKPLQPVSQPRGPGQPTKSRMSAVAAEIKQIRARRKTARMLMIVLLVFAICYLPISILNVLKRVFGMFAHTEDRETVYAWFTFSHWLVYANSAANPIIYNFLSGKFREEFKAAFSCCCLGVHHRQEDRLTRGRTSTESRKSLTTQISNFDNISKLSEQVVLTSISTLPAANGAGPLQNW
- Assay notes: In vitro assay: intracellular calcium measurements (FLIPR), antagonistic activity
- Type: cell-based
- Setup conditions: CHO cells, 3 nM orexin-A, compound incubation time of 10 min; marked values are geometric means of n = 2-6; read-out: IC50 OX2
- Description: In Vitro Assay: Intracellular Calcium Measurements: […] Fluorescence is measured for each well at 1 second intervals, and the height of each fluorescence peak is compared to the height of the fluorescence peak induced by 3 nM orexin-A with vehicle in place of antagonist. […] The calculated IC50 values may fluctuate depending on the daily cellular assay performance. […]
pIC50: −log10 of the molar value.
Assay readout: pIC50

>  <Compound>
COc1cccc(OC)c1C1CCCC(=O)N1Cc1ccc(OC(F)F)nc1 (stereo not shown)

>  <Test system>
human orexin-2 receptor (Homo sapiens (Human), UniProt O43614)

>  <Result>
7.04

$$$$
>  <Compound>
COc1cccc(OC)c1C1CCCC(=O)N1Cc1ccc(OC(F)F)cn1 (stereo not shown)

>  <Test system>
human orexin-2 receptor (Homo sapiens (Human), UniProt O43614)

>  <Result>
7.15

$$$$
>  <Compound>
COc1cccc(OC)c1C1CCCC(=O)N1Cc1cccc(OC(F)F)c1 (stereo not shown)

>  <Test system>
human orexin-2 receptor (Homo sapiens (Human), UniProt O43614)

>  <Result>
7.11

$$$$
>  <Compound>
COc1cc(OC)c(C2CCCC(=O)N2Cc2ccc(OC(F)(F)F)cc2)c(OC)c1 (stereo not shown)

>  <Test system>
human orexin-2 receptor (Homo sapiens (Human), UniProt O43614)

>  <Result>
6.97

$$$$

====

- Test system: human orexin-2 receptor (Homo sapiens (Human), UniProt O43614)
- Assay notes: In vitro assay: intracellular calcium measurements (FLIPR), antagonistic activity
- Type: cell-based
- Setup conditions: CHO cells, 3 nM orexin-A, compound incubation 120 min; marked values are geometric means of n = 2-6; read-out: IC50 OX2
pIC50: −log10 of the molar value.
The entries below come with measured pIC50 values attached.

>  <Molecule>
COc1ccc2ccccc2c1C1CCCC(=O)N1Cc1cccc(-c2ncccn2)c1 (stereo not shown) [Example 445]

>  <pIC50>
7.05

$$$$
>  <Molecule>
CCOc1ccccc1[C@@H]1C[C@H](Cl)C(=O)N1Cc1ccc(OC(F)(F)F)cc1 (racemic) [Example 304]

>  <pIC50>
6.89

$$$$
>  <Molecule>
COc1cccc(OC)c1C1CCC(=O)N1Cc1ccc(Oc2nc(C)cs2)cc1 (stereo not shown) [Example 292]

>  <pIC50>
6.90

$$$$
>  <Molecule>
COc1cccc(OC)c1C1CCCCC(=O)N1Cc1cccc(Oc2ccccc2)c1 (stereo not shown) [Example 74]

>  <pIC50>
7.01

$$$$
>  <Molecule>
COc1cccc(OC)c1C1CCC(=O)N1Cc1cccc(-c2nccs2)c1 (stereo not shown) [Example 124]

>  <pIC50>
7.05

$$$$
>  <Molecule>
COc1ccnc(OC)c1C1CC(C)C(=O)N1Cc1cccc(-c2ccccc2)c1 (stereo not shown) [Example 354]

>  <pIC50>
6.95

$$$$
>  <Molecule>
COc1cccc(OC)c1C1CCCC(=O)N1Cc1ccc2c(c1)c1ccccc1n2C (stereo not shown) [Example 32]

>  <pIC50>
6.88

$$$$
